B1: library; numbered along this chain (parent)
chain: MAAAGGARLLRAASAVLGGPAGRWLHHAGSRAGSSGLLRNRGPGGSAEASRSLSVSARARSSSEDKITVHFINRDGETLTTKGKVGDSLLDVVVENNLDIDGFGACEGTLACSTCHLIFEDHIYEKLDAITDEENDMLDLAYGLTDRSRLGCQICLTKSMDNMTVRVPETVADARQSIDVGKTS

variants of: B1; assay: scaled log2 fold change in cell abundance, elesclomol vs control (0 = silent mean, 1 = nonsense mean) (scaled log2 ratio); higher = higher viability under elesclomol (loss of FDX1 cuproptosis function); conditions: with HEK293T FDX1 KO; elesclomol 40 nM; glucose 10 mM; 11 days;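 further: variant abundance is its share of total variant reads in each endpoint sample, from next-generation sequencing of the integrated ORF PCR-amplified out of genomic DNA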
Recorded scaled log2 fold change determines the label; the label ranges are lower range (below -0.1), middle range (-0.1 to below 0.4), upper range (0.4 or more)

Q. Please indicate the class for H26T based on its scaled log2 fold change.
A. middle range
